assay target: T1, IL-18 receptor (IL-18Rαβ) on cells (UniProt Q13478 19-541; O95256 20-599, limits assumed)
T1 sequence (looked up) 1: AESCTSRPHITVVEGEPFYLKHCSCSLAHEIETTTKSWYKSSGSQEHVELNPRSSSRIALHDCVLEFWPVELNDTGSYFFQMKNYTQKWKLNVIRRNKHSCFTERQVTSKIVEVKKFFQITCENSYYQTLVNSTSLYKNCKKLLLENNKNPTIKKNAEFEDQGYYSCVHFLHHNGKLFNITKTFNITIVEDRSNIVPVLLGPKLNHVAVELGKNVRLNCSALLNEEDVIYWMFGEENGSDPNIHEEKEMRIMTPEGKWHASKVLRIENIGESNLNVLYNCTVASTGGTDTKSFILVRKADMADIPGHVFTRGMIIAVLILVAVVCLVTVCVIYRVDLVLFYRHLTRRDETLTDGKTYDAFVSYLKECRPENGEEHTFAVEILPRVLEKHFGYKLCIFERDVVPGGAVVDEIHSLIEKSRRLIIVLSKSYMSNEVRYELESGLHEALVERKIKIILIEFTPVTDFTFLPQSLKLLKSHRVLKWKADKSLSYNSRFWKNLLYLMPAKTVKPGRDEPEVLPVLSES
T1 sequence (looked up) 2: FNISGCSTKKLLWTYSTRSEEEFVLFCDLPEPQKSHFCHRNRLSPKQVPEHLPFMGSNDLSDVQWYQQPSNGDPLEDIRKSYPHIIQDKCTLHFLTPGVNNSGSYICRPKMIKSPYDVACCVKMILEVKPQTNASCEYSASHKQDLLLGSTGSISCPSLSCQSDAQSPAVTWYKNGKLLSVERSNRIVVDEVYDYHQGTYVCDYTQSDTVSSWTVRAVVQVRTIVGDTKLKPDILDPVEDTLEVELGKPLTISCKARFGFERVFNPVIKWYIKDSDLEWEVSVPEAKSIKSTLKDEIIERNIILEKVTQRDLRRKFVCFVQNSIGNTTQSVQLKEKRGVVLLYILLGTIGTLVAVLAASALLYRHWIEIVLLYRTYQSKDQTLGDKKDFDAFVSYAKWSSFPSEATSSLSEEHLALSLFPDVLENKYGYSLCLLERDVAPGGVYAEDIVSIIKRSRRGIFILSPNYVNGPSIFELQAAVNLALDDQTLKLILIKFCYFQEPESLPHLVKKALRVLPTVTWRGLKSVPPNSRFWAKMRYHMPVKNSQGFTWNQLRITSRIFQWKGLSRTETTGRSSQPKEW
assay text: cell-based or functional assay
The threshold is 20 nM. Values of IFNγ release NK-92 assay EC50 beneath it are tagged Condition met; values meeting or exceeding it are tagged Condition not met.

{"binder": "C326 (ligand) MAAEPVEDNSINFVAMKFIDNTLYFIAEDDENLESDRGRRVANPLGLAGSGYFGKLKSKLSIIRNLNDQVLFIDQGNRPLFEDMTDSDARDNAPRTIFIISMYADSQPRGMAVAISVKCEKISTLSAENKIISFKEMNPPDNIKDTKSDIIFFQRSVPGHDNKMQFESSSYEGYFLAAEKERDLFKLILKKEDELGDRSIMFTVQNED", "label class": "Condition not met"}

Data request: IFNγ release NK-92 assay EC50 under 20 nM? Item: C086 (SEQ ID NO: 30) (ligand) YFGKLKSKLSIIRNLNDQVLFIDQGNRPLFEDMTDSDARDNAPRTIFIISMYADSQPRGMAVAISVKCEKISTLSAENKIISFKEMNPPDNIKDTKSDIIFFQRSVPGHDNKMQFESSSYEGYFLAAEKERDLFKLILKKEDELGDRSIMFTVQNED
Data returned: Condition met

Data request: Strictly below 20 nM in IFNγ release NK-92 assay EC50? C325 + MMP9 (ligand) LAGGSGYFGKLKSKLSIIRNLNDQVLFIDQGNRPLFEDMTDSDARDNAPRTIFIISMYADSQPRGMAVAISVKCEKISTLSAENKIISFKEMNPPDNIKDTKSDIIFFQRSVPGHDNKMQFESSSYEGYFLAAEKERDLFKLILKKEDELGDRSIMFTVQNED
Data returned: Condition met

Data request: # TODO verify IFNγ release NK-92 assay EC50 < 20 nM strictly for this binder: C324 (ligand) MAAEPVEDNSINFVAMKFIDNTLYFIAEDDENLESDRGRRVANPLGYFGKLKSKLSIIRNLNDQVLFIDQGNRPLFEDMTDSDARDNAPRTIFIISMYADSQPRGMAVAISVKCEKISTLSAENKIISFKEMNPPDNIKDTKSDIIFFQRSVPGHDNKMQFESSSYEGYFLAAEKERDLFKLILKKEDELGDRSIMFTVQNED
Data returned: Condition not met

Data request: Could you please tell me whether IFNγ release NK-92 assay EC50 recorded for C314 (ligand) MAAEPVEDNAINFVAMKFIDNTLYFIAEDDENLESDPLGYFGKLKSKLSIIRNLNDQVLFIDQGNRPLFEDMTDSDARDNAPRTIFIISMYADSQPRGMAVAISVKCEKISTLSAENKIISFKEMNPPDNIKDTKSDIIFFQRSVPGHDNKMQFESSSYEGYFLAAEKERDLFKLILKKEDELGDRSIMFTVQNED is less than 20 nM?
Data returned: Condition not met

The reported measurements were obtained from patent US20250197467A1.
